For each entry below, report its amyloid nucleation score value.
experiment: amyloid nucleation score (Sup35N fusion, yeast selection) (log enrichment); library NNK2; higher = more nucleation; inactive = no reads after selection;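 further: zero at mode of non-aggregating sequences after 7 days selection at 30°C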
// keep it numeric: no unit symbol after the value

Item IMKYAHFNLK : provide amyloid nucleation score
0.788

Item LVRNPAQMSFRPIVHSVCYL : provide amyloid nucleation score
0.724

Item KVEALDVTRGIVPGKSLAVR : provide amyloid nucleation score
0.249

Item IHLLPLPYEVPSLLCTSRGP : provide amyloid nucleation score
0.258

Item ENFRGTFKIRRRCCL : provide amyloid nucleation score
-0.251

Item NRTFSHWTCLYLFLSTLKRE : provide amyloid nucleation score
-1.06

Item NNRVVFTGRFL : provide amyloid nucleation score
-1.45

Item YLLRYYGGSFNHLMCWFRSP : provide amyloid nucleation score
2.6

Item FQFRCCTM : provide amyloid nucleation score
9.23

Item VFVWECGAIQSLLISYMNDM : provide amyloid nucleation score
-0.784

Item FFTAMDASRSRLKCSYAVQT : provide amyloid nucleation score
3.28

Item FYFWVSDYQLGDMVNIMNLS : provide amyloid nucleation score
-0.184

Item ISTIWFRLQTGARKTRLLFD : provide amyloid nucleation score
-0.735

Item GIPVMPTDSRGTPGVMVFEY : provide amyloid nucleation score
-1.25

Item DNLVCCSCSHLIVWTLSVGA : provide amyloid nucleation score
9.55

Item KHCQLLSVSAECDRPGLWKE : provide amyloid nucleation score
0.75

Item SCSMLVRDDIIIEPDCLLGV : provide amyloid nucleation score
0.45

----------
test: amyloid nucleation score (Sup35N fusion, yeast selection) (log enrichment); library NNK1; higher = more nucleation; inactive = no reads after selection
Category | rule: reported amyloid nucleation score within range, see lower band: < 0.1; central band: ≥ 0.1 and < 0.5; upper band: ≥ 0.5

Field: class (amyloid nucleation score) — entry: ILSFMYYDTHAPLKFAVQVK
central band

Field: class (amyloid nucleation score) — entry: RSNPMTVMVSCLDEVVS
lower band

Field: class (amyloid nucleation score) — entry: HRTDRCVVMLHWPWIF
lower band

Field: class (amyloid nucleation score) — entry: IGACVMQVNLCQSSGVSSYL
upper band

Field: class (amyloid nucleation score) — entry: AFLIIMSGSGNCICLRSLVS
lower band

Field: class (amyloid nucleation score) — entry: RSDDKVSRSVGDHCTVGVLR
upper band

Field: class (amyloid nucleation score) — entry: CFPDICWHSVK
central band

Field: class (amyloid nucleation score) — entry: IDVFEITSKSFAARGAQFVH
lower band

Field: class (amyloid nucleation score) — entry: CLLRTRFWR
central band

Field: class (amyloid nucleation score) — entry: TSYPSYVDFW
central band

Field: class (amyloid nucleation score) — entry: WYRYEPLVMTRQMSGVGPMR
central band

Field: class (amyloid nucleation score) — entry: VWTMIYSTCGSDFYFCSVEL
upper band

Field: class (amyloid nucleation score) — entry: MRAFGVNGTVQRWWGSCSRF
upper band

Field: class (amyloid nucleation score) — entry: TLTSPWDSYKRFCKNSPLFN
central band

Field: class (amyloid nucleation score) — entry: AFMDKLMSPGEVIEVAL
upper band

Field: class (amyloid nucleation score) — entry: GLPLYVHVAVEVIWL
lower band

----------
experiment: amyloid nucleation score (Sup35N fusion, yeast selection) (log enrichment); library NNK3; higher = more nucleation; inactive = no reads after selection
Recorded metric: amyloid nucleation score

# Substance, Recorded metric, Measured
records = [
    ("NDWRCKEVTSSDIWAFVYCS", "amyloid nucleation score", 0.967),
    ("QLYSHNRYTLGYTMLSRFVS", "amyloid nucleation score", "inactive"),
    ("NHCNTCSWFLQTS", "amyloid nucleation score", 1.45),
    ("CFVYRTLISNLFSIWHSLQF", "amyloid nucleation score", "inactive"),
]

Item ADSLRCVSWFSD : provide amyloid nucleation score
inactive

Item RRCNVMLKNDLNCLPSSLFI : provide amyloid nucleation score
0.322

Item SCRDDLLVMSKVTLITMT : provide amyloid nucleation score
inactive

Item RCSWKTLPMYLMYCCTACHS : provide amyloid nucleation score
inactive

Item TMVICLSLLRNMILHF : provide amyloid nucleation score
inactive

Item PNKDSLWDPFKQQSRSEK : provide amyloid nucleation score
-0.455

Item INFVYSHM : provide amyloid nucleation score
1.75

Item ACTRYCWHYFVNIVWCESDF : provide amyloid nucleation score
inactive

Item LNMARDYFVFQSPADPGCLV : provide amyloid nucleation score
inactive

Item LHGNYVGQLLDLEIPVRGWI : provide amyloid nucleation score
inactive

----------
assay: amyloid nucleation score (Sup35N fusion, yeast selection) (log enrichment); library NNK1; higher = more nucleation; inactive = no reads after selection
For each entry below, report its amyloid nucleation score value.
// keep it numeric: no unit symbol after the value

Item CRLISCDRFRSTRSKG : provide amyloid nucleation score
0.016

Item LHLPYGCTASAICQFECSGW : provide amyloid nucleation score
3

Item VMKLAVRR : provide amyloid nucleation score
-0.114

Item TIVGWSITIVRLHSFIFFNG : provide amyloid nucleation score
0.021

Item RQEVKAMGRFTATSLGTHSR : provide amyloid nucleation score
0.399

Item SVKRMWYLDV : provide amyloid nucleation score
-0.483

Item YQSHLAIFFRDGHRSSKITN : provide amyloid nucleation score
-0.008

Item SLNKRWCLRTQFGVAMVRTP : provide amyloid nucleation score
0.416

Item GCLNDCGSLVWYGVCKSCLP : provide amyloid nucleation score
0.446

Item RGYQTSGLT : provide amyloid nucleation score
-0.756

Item CFRHRYRQLGIMWWGLRLQL : provide amyloid nucleation score
-1.44

Item HPRMCWVPVISIIPLLSVMA : provide amyloid nucleation score
0.185

Item YVVNGYSICGFDAEVIVLQL : provide amyloid nucleation score
1.19

Item GYTKILMRHSNFCMTK : provide amyloid nucleation score
0.428

Item ITFTHDNISYKIRTPFAKSL : provide amyloid nucleation score
1.55

Item FRMNRKVRC : provide amyloid nucleation score
0.082

Item FLYVVARY : provide amyloid nucleation score
0.19

Item LFTCVQFIMGVDDRWKRARS : provide amyloid nucleation score
2.19

Item SGHNSLGFISGIAINIFYRE : provide amyloid nucleation score
7.54

Item EFIIAWVWRLHNWVSGFRHS : provide amyloid nucleation score
0.343

Item ERWIVVPDESTTRTTHRHIN : provide amyloid nucleation score
0.147

Item LLVNFSTSRLSLYMFIMIFS : provide amyloid nucleation score
-0.779

Item RCHESARKVTSGMCCSGWC : provide amyloid nucleation score
4.12

----------
For each entry below, report its amyloid nucleation score value.
test: amyloid nucleation score (Sup35N fusion, yeast selection) (log enrichment); library NNK3; higher = more nucleation; inactive = no reads after selection
// keep it numeric: no unit symbol after the value

Item GDMFDWFSGELVFRMRNILC : provide amyloid nucleation score
-0.917

Item WAKNHPDLIMLIFADTISYN : provide amyloid nucleation score
2.31

Item SIMFGNLSMAKVKYMNFL : provide amyloid nucleation score
0.862

Item FSRPLPTPESYRW : provide amyloid nucleation score
-0.287

----------
assay: amyloid nucleation score (Sup35N fusion, yeast selection) (log enrichment); library NNK2; higher = more nucleation; inactive = no reads after selection
Returns rule met if the recorded amyloid nucleation score is greater than or equal to 0.5, and rule not met otherwise.

Say whether VYYVSRLLTFFPVSSNPCGS shows amyloid nucleation score of 0.5 or more.
rule met

Say whether FSMQSMSKGYVLRPLGMA shows amyloid nucleation score of 0.5 or more.
rule not met

Say whether TFAIIRIII shows amyloid nucleation score of 0.5 or more.
rule met

Say whether VWEVAMISTINSAGHLCLGD shows amyloid nucleation score of 0.5 or more.
rule not met

Say whether SDTVYLIFFSLAYNYVKRVT shows amyloid nucleation score of 0.5 or more.
rule not met

Say whether WDSIVDVSSKIAFFRMNDSS shows amyloid nucleation score of 0.5 or more.
rule not met

Say whether IHNDCKLPMFVIMFS shows amyloid nucleation score of 0.5 or more.
rule met

Say whether LLVYAQLYRVWVWF shows amyloid nucleation score of 0.5 or more.
rule not met

Say whether RRMNHLPFCCKRYRTSRPKF shows amyloid nucleation score of 0.5 or more.
rule not met

Say whether IDKICFKTDLIVFCRGLNPC shows amyloid nucleation score of 0.5 or more.
rule met

Say whether TTVSWENGSRVINIVFILMF shows amyloid nucleation score of 0.5 or more.
rule met

Say whether GIFGMC shows amyloid nucleation score of 0.5 or more.
rule not met

Say whether TNRLMVEVALIFRSINCVNR shows amyloid nucleation score of 0.5 or more.
rule not met

Say whether FQYENNVDNG shows amyloid nucleation score of 0.5 or more.
rule not met

Say whether VFSDWMNCRYLMLRVCRVPR shows amyloid nucleation score of 0.5 or more.
rule met

Say whether LDDVNMWFHIGNGRGGGELW shows amyloid nucleation score of 0.5 or more.
rule not met

Say whether SYYGFLSFCSKTCMPLMWLE shows amyloid nucleation score of 0.5 or more.
rule not met

Say whether QGLSCEGILWLVEYSQTFFG shows amyloid nucleation score of 0.5 or more.
rule not met

Say whether SYNLNSNRVESIDFSSIIIV shows amyloid nucleation score of 0.5 or more.
rule not met

Say whether LLRMKTFDHWYRAREGFAYC shows amyloid nucleation score of 0.5 or more.
rule not met

Say whether TQLASIQPSVPCYIVYTVGL shows amyloid nucleation score of 0.5 or more.
rule met
